Below, each entry is listed alongside its reported normalized growth.
Experiment: chemical genetic growth profiling, strain panel (AID 1159580);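 also: tested at 20 µM; growth read once vehicle control cultures reached saturation at 30 °C; 1 = growth at the plate median or of vehicle wells; lower values mean less growth of the strain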
Details: S. cerevisiae deletion strains, growth OD, locus YGL253W, strain hxk2, hits give low values
The campaign covered roughly 5,500 compounds. About 2,000 (36%) were called active. Not shown: some 18% with an inconclusive outcome. The list shows a part of the results.

compound	normalized growth
COC(=O)[C@@H]1OC(=O)[C@H]2O[C@@]23[C@@]1(C)CCC1[C@@]2(C)CCC(=O)C(C)(C)C2C[C@@H](OC(C)=O)[C@]13C (stereo partly specified)	0.958 (inactive)
CCOC(=O)Nc1nc2ccccc2[nH]1	0.982 (inactive)
C=CC(N)CCC(=O)O (stereo unspecified)	0.98 (inactive)
O=c1[nH]oc2c1CCNC2	1.02 (inactive)
O=C(Cn1ccnc1[N+](=O)[O-])NCCO	0.982 (inactive)
O=C(O)CN(CC(=O)O)Cc1cc2c(-c3ccccc3C(=O)O)c3cc(CN(CC(=O)O)CC(=O)O)c(=O)cc-3oc2cc1O	0.934 (inactive)
O=C(C1CCCCC1)N1CC(=O)N2CCc3ccccc3C2C1 (stereo unspecified)	0.982 (inactive)
CC(C)NCC(O)c1cc(O)cc(O)c1 (stereo unspecified)	0.974 (inactive)
COc1cc([C@@H]2c3cc4c(c(O)c3C[C@H]3COC(=O)[C@@H]32)OCO4)cc(OC)c1OC	0.994 (inactive)
CCNC(=O)CC[C@H](N)C(=O)O	1 (inactive)
Cc1coc2c1C(=O)C(=O)c1c-2ccc2c1CCCC2(C)C	0.828 (active)

* * *

Assay: chemical genetic growth profiling, strain panel (AID 1159580)
Details: S. cerevisiae deletion strains, growth OD, locus YHR027C, strain rpn1, hits give low values
The campaign covered roughly 5,500 compounds. About 2,000 (36%) were called active. Roughly 18% stayed inconclusive and do not appear here. The list shows a part of the results.
Simple rule here: normalized growth less than 1 is Criterion met, otherwise Criterion not met.

compound	class
C[N+]1(C)C2CC(OC(=O)[C@@H](CO)c3ccccc3)CC1C1OC12 (stereo partly specified)	Criterion met
O=C1CC2OCC=C3CN4CC[C@]56c7ccccc7N1C5[C@H]2[C@H]3CC46 (stereo partly specified)	Criterion not met

* * *

Assay: chemical genetic growth profiling, strain panel (AID 1159580)
Details: S. cerevisiae deletion strains, growth OD, locus YER015W, strain faa2, hits give low values
Screen size: about 5,500 compounds; about 2,000 (36%) were called active. Inconclusive results (about 18%) are left out. This is one part of the list.
Below, each entry is listed alongside its reported normalized growth.

compound	normalized growth
O=C1[C@H](CCC(O)c2ccc(F)cc2)[C@@H](c2ccc(O)cc2)N1c1ccc(F)cc1 (stereo partly specified)	0.99
COc1cc(-c2coc3cc(OC)c(OC)c(OC)c3c2=O)cc(OC)c1OC	1
Cc1cc(-c2ccccc2)nnc1NCCN1CCOCC1	0.997
COc1cc2c(cc1OC)C1Cc3ccc(OC)c(OC)c3CN1CC2 (stereo unspecified)	0.984
COc1ccc(-c2coc3cc(OC)cc(OC)c3c2=O)cc1	0.99
O=c1cc[nH]c(=S)[nH]1	1.01
N[C@@H](CC(=O)N1CCn2c(nnc2C(F)(F)F)C1)Cc1cc(F)c(F)cc1F	0.978
Nc1ccn(C2O[C@H](CO)[C@@H](O)[C@@H]2O)c(=O)n1 (stereo partly specified)	1.01
Cc1c(S(=O)(=O)O)oc2c1C(=O)C(=O)c1c-2ccc2c1CCCC2(C)C	0.93
O=C1OC2(c3ccc(O)cc3Oc3cc(O)ccc32)c2ccccc21	1.01
Cc1coc2c1C(=O)C(=O)c1c-2ccc2c1CCCC2(C)C	0.951

* * *

Test: chemical genetic growth profiling, strain panel (AID 1159580);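 also: tested at 20 µM; growth read once vehicle control cultures reached saturation at 30 °C; 1 = growth at the plate median or of vehicle wells; lower values mean less growth of the strain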
Conditions: S. cerevisiae deletion strains, growth OD, locus YGL078C, strain dbp3, hits give low values
The campaign covered roughly 5,500 compounds. About 2,000 (36%) were called active. Another 18% or so got no clear call; they are omitted. The list shows a part of the results.
test_readout: normalized growth

compound	quantitative_readout
CC[C@H](C)C(=O)O[C@H]1CCC=C2C=C[C@H](C)C(CCC3C[C@@H](O)CC(=O)O3)[C@H]21 (some centres undefined)	0.971
CO/N=C(\C(=O)N[C@@H]1C(=O)N2C(C(=O)O)=C(CSc3nc(=O)c(O)nn3C)CS[C@H]12)c1csc(N)n1	0.992
CC1(C)C2CC(=O)[C@]3(C)C(CC[C@@]4(C)[C@H](c5ccoc5)OC(=O)[C@H]5O[C@]543)[C@@]2(C)C=C[C@@H]1O (some centres undefined)	0.981
Cn1c(=O)c2[nH]cnc2n(C)c1=O	0.987
CO/N=C(\C(=O)N[C@@H]1C(=O)N2C(C(=O)O)=C(COC(C)=O)CS[C@H]12)c1csc(N)n1	0.998
CC1C[C@H]2CC(=O)[C@H]3CCCN4CCC[C@H]2[C@]34C1 (some centres undefined)	1.01
O=C1CC2OCC=C3CN4CC[C@]56c7ccccc7N1C5[C@H]2[C@H]3CC46 (some centres undefined)	0.99
OC(Cn1cncn1)(Cn1cncn1)c1ccc(F)cc1F	0.997
CC[C@H](C)C(=O)O[C@H]1C[C@@H](C)C=C2C=C[C@H](C)[C@H](CC[C@@H]3C[C@@H](O)CC(=O)O3)[C@H]21	0.984

* * *

Below, each entry is listed alongside its reported normalized growth.
Assay: chemical genetic growth profiling, strain panel (AID 1159580);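 also: tested at 20 µM; growth read once vehicle control cultures reached saturation at 30 °C; 1 = growth at the plate median or of vehicle wells; lower values mean less growth of the strain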
Settings: S. cerevisiae deletion strains, growth OD, locus YOR144C, strain elg1, hits give low values
The whole screen tested about 5,500 compounds, of which about 2,000 (36%) were called active. About 18% were inconclusive and are not listed. This is one part of the list.
test_readout: normalized growth

compound	quantitative_readout
C=C1CCC(C2CC(=O)OC2=O)C(=O)CCC2C1CC2(C)C (centres undefined)	0.996
C=C1CCC2C(CC2(C)C)C(=C)CC/C1=N\O (centres undefined)	0.976
Clc1cccc(Cl)c1NC1=NCCN1	1.01
C=C1CCC(=O)C(C)CCC2C1CC2(C)C (centres undefined)	0.987
CC1(C)C2CC(=O)[C@]3(C)C(CC[C@@]4(C)[C@H](c5ccoc5)OC(=O)[C@H]5O[C@]543)[C@@]2(C)C=C[C@@H]1O (some centres undefined)	1
NS(=O)(=O)c1cc2c(cc1Cl)NC(C(Cl)Cl)NS2(=O)=O (centres undefined)	1
CCCC(=O)O[C@]1(C(=O)CO)CCC2[C@@H]3CCC4=CC(=O)CC[C@]4(C)C3[C@@H](O)C[C@@]21C (some centres undefined)	0.977
Cc1cccc(C)c1NC1=NCCCS1	0.994
O=C1[C@H](CCC(O)c2ccc(F)cc2)[C@@H](c2ccc(O)cc2)N1c1ccc(F)cc1 (some centres undefined)	0.968
C=C1C(=O)OC2CC1C(OC(C)=O)C/C(C)=C/CC/C(C)=C/CC[C@]2(C)O (some centres undefined)	1.02
CC1(C)OC(=O)C=CC2(C)C1CC(O)C1(C)C2CCC2(C)C(c3ccoc3)OC(=O)C3OC321 (centres undefined)	1.01
COc1cc(-c2coc3cc(OCc4ccccc4)c(OC)c(O)c3c2=O)cc(O)c1OC	0.988
C=C1CCC(OC(C)=O)/C(C)=C/C[C@@H]2[C@@H]1CC2(C)C (some centres undefined)	1.01
CC1(C)O[C@H]2[C@H](O)C[C@](O)(C(N)=O)C[C@H]2O1	1.01
CO/N=C(\C(=O)N[C@@H]1C(=O)N2C(C(=O)O)=C(COC(C)=O)CS[C@H]12)c1csc(N)n1	0.99
C/C1=C\CCC(=O)C2CC(C)(C)C2CC1 (centres undefined)	1.02
CO/N=C(\C(=O)NC1C(=O)N2C(C(=O)O)=C(COC(N)=O)CSC12)c1ccco1 (centres undefined)	0.0595
C=C1CCC2C(CC2(C)C)C(=O)CCC1O (centres undefined)	1
O=c1cc[nH]c(=S)[nH]1	1.02

* * *

Assay: chemical genetic growth profiling, strain panel (AID 1159580);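 also: tested at 20 µM; growth read once vehicle control cultures reached saturation at 30 °C; 1 = growth at the plate median or of vehicle wells; lower values mean less growth of the strain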
Conditions: S. cerevisiae deletion strains, growth OD, locus YGL227W, strain vid30, hits give low values
Among all 5,500 compounds or so, about 2,000 (36%) were called active. Inconclusive results (about 18%) are left out. The list shows a part of the results.
test_readout: normalized growth

compound	result
C=CCCCCCCCCCCCC(O)CC(O)COC(C)=O (stereo not given) (tested in a mixture with another compound)	0.969 (inactive)
C#CCCCCCCCCCCCC(O)CC(O)CO (stereo not given)	0.993 (inactive)
CC1C[C@H]2CC(=O)[C@H]3CCCN4CCC[C@H]2[C@]34C1 (stereo not given in full)	1.01 (inactive)
CC(=O)OCC(OC(C)=O)C(OC(C)=O)C(OC(C)=O)C(OC(C)=O)C(COC(C)=O)OC(C)=O (stereo not given)	0.99 (inactive)
CC1(C)NC(=O)N(c2ccc([N+](=O)[O-])c(C(F)(F)F)c2)C1=O	0.973 (inactive)
